experimental target: CTSC in U937 cells (Homo sapiens (Human))
assay text: Intracellular CTSC inhibition assay (in vitro), LLOMe-induced cell death in U937 cells
Format: cell-based
experimental setup: 3 hours culture, CellTiter-Glo
Listing of entries alongside the reported IC50.
measured property: IC50 (nM)

• CN(C)C1(c2nc(C3CC(F)(F)C3)no2)CCN(C(=O)[C@@H]2C[C@@H](O)C3(CCC3)CN2)CC1 = 5.01
• CC1CC[C@@H](C(=O)N2CCC(c3noc(C4CCC(F)(F)CC4)n3)(C(C)C)CC2)NC1 (stereo partly shown) = 57.3
• O=C([C@@H]1C[C@@H](O)C2(CCC2)CN1)N1CCC(c2nc(C3CC(F)(F)C3)no2)(C(F)(F)F)CC1 = 0.89
• O=C([C@@H]1C[C@@H](O)C2(CCC2)CN1)N1CCC(c2noc(C3CCC(F)(F)CO3)n2)(C(F)(F)F)CC1 (stereo partly shown) [Example 63] = 1.01

---

Listing of entries alongside the reported IC50.
experimental target: CTSC in U937 cells (Homo sapiens (Human), UniProt P53634)
Sequence (P53634 25-463): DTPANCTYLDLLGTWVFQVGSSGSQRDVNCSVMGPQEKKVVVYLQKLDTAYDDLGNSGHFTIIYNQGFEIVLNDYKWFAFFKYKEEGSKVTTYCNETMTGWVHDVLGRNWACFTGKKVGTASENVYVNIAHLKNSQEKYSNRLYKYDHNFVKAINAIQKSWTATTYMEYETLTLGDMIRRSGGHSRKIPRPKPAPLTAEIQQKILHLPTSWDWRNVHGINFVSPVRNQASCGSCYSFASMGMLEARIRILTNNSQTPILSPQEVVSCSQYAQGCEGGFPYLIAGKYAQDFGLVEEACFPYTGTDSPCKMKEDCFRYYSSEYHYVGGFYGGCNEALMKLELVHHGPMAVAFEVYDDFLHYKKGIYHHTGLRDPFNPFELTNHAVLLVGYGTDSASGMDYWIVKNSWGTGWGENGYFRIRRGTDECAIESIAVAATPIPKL
assay text: Intracellular CTSC inhibition assay (in vitro), LLOMe-induced cell death in U937 cells
Type: cell-based
experimental setup: 3 hours culture, CellTiter-Glo
measured property: IC50 (nM)

- CC1(C)CN[C@H](C(=O)N2CCC(c3nc(C4CCC(F)(F)CC4)no3)(C(F)(F)F)CC2)C[C@H]1O: 0.55
- CC(C)C1(c2noc(C3CCC3)n2)CCN(C(=O)[C@@H]2C[C@@H](O)C3(CCC3)CN2)CC1: 0.56
- O=C([C@@H]1CC[C@@]2(CCO2)CN1)N1CCC(c2nc(C3CCC(F)(F)CC3)no2)(C(F)(F)F)CC1: 11.5
- O=C([C@@H]1C[C@@H](O)C2(CCC2)CN1)N1CCC(C(=O)N2CCO[C@H](C(F)(F)F)C2)(C(F)(F)F)CC1: 7.18

---

experimental target: human recombinant CTSC (Homo sapiens (Human), UniProt P53634)
Sequence (P53634 25-134): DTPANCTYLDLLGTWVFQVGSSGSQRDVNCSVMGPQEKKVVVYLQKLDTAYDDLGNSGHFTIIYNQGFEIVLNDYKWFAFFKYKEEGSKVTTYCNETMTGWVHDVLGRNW
Sequence (P53634 231-394): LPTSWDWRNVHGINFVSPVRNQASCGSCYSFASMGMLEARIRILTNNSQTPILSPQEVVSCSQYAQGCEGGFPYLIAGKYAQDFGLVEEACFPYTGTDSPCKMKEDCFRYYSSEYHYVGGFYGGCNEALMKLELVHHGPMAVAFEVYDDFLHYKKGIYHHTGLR
Sequence (P53634 395-463): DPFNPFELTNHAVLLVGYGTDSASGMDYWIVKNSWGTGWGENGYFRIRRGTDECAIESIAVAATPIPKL
assay text: CTSC inhibition assay (in vitro), fluorescent substrate GF-AFC
Format: biochemical
experimental setup: 30 μmol/L GF-AFC, pH 5.0, 25° C.
Description: 1. CTSC Inhibition Assay (In Vitro) A test specimen was evaluated by a CTSC inhibition assay using a fluorescent substrate GF-AFC (Gly-Phe-7-Amino-4-trifluoromethylcoumarin, MP Biomedical, 03AFC03325). Since the GF-AFC is converted by CTSC to aminotrifluoromethylcoumarin having a specific fluorescence wavelength and the produced amount is proportional to CTSC activity, quantitative analysis was performed by measuring a fluorescence intensity with a plate reader. […]
measured property: IC50 (nM)

- CC1(C)CN[C@H](C(=O)N2CCC(c3nc(C4CCC(F)(F)CC4)no3)(C(F)(F)F)CC2)C[C@H]1O: 3.57
- CC(C)C1(c2nc(C3CC(F)(F)C3)no2)CCN(C(=O)[C@@H]2C[C@@H](O)C(C)(C)CN2)CC1: 3.88
- O=C([C@@H]1CC[C@@]2(CCO2)CN1)N1CCC(C(=O)NCC2CCC(F)(F)CC2)(C(F)(F)F)CC1: 2.51
- O=C([C@@H]1C[C@@H](O)C2(CCC2)CN1)N1CCC(C(=O)N2CC[C@H](C(F)(F)F)C2)(C(F)(F)F)CC1: 4.4
- CC(C)C1(c2noc(C34CC(C3)C4)n2)CCN(C(=O)[C@@H]2C[C@@H](O)C3(CCC3)CN2)CC1: 2.48
- CC(C)C1(c2nc(C3CC(F)(F)C3)no2)CCN(C(=O)[C@@H]2CC[C@@]3(CCO3)CN2)CC1: 5.09
- CC(C)C1(c2noc(C3CCC(F)(F)CC3)n2)CCN(C(=O)[C@@H]2CC[C@@]3(CCO3)CN2)CC1: 1.43
- Cc1ccc(C2(c3nc(C4CC(F)(F)C4)no3)CCN(C(=O)[C@@H]3C[C@@H](O)C4(CCC4)CN3)CC2)cc1: 1.47
- CC(C)C1(c2noc(C3CCC(F)(F)CC3)n2)CCN(C(=O)[C@@H]2C[C@H](F)CN2)CC1: 151
- O=C([C@@H]1C[C@@H](O)C2(CCC2)CN1)N1CCC(c2noc(C3CCC(F)(F)CO3)n2)(C(F)(F)F)CC1 (some centres unmarked) [Example 50]: 1.53
- O=C([C@@H]1CC[C@@]2(CCO2)CN1)N1CCC(c2noc(C3CCC(F)(F)CC3)n2)(C(F)(F)F)CC1: 3.28
- CC(C)C1(c2noc(C3CCC(F)(F)CC3)n2)CCN(C(=O)C2CCC3(CCC3)CN2)CC1 (centres unmarked): 7.19
- O=C([C@@H]1C[C@@H](O)C2(CCC2)CN1)N1CCC(c2nccc(-c3ccc(F)cc3)n2)CC1: 1.93
- O=C([C@@H]1C[C@@H](O)C2(CCC2)CN1)N1CCC(c2noc(C3CCC(F)(F)CC3)n2)(C2CC2)CC1: 0.87
